- subject.of.test: UniProt Q8NER1
- Sequence (Q8NER1 whole entry): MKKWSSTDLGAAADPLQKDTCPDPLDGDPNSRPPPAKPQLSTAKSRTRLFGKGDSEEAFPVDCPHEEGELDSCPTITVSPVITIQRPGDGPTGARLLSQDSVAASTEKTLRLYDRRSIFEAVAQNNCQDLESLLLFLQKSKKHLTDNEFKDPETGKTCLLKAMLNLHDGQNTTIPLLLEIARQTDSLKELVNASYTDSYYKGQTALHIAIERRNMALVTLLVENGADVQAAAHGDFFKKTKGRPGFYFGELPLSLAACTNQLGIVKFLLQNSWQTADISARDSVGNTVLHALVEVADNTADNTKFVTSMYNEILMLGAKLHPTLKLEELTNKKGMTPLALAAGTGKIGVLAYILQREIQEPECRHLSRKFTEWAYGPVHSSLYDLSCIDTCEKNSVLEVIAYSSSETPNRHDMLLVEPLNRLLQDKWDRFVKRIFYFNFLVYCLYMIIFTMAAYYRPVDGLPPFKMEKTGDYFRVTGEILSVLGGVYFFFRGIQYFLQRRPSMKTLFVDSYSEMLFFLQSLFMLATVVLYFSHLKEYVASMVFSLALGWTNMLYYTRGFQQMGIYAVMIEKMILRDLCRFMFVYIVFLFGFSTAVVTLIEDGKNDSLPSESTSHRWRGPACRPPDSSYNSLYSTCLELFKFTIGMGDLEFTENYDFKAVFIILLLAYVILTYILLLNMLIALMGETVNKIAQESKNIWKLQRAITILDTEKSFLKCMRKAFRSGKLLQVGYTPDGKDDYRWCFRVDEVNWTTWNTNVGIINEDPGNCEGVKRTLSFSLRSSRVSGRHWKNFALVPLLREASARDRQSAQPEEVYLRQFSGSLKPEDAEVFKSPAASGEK
- assay.details: pH-based assay (Fura-2 AM Ca2+ response to low pH, TRPV1/CHO cells)
metric: IC50 (nM)

[I] O=C(Nc1ccc(C(F)(F)F)cc1)C1=CCN(c2ncc([C@@H](O)CO)cc2F)CC1
[II] O=C(Nc1ccc(C(F)(F)F)cc1)C1=CCN(c2ncc([C@H](O)CO)cc2F)CC1
Please state the entry with greater IC50 among I and II . Please respond with the label that marks your chosen entry.
I
(I: 14.7 nM, II: 9.5 nM)
